assay: qHTS assay to identify small molecule inhibitors of chordoma cells - UCH-2 (AID 1259356); settings: UCH-2 chordoma viability, CellTiter-Glo ATP luminescence, 48 h; series mostly up to 46.1 µM
Records with an inconclusive call do not appear. Active and inactive are the calls of the source. Calls follow the shape of the dose curve; as a rule, active = well fitted cell-killing curve with a large enough effect; inconclusive = small, poorly fitted or top-dose-only effect; inactive = flat fitted curve, though single readings scatter.
Would you mind answering with one of these outcomes? active, inactive

A selection of reference data follows.
>>> class_label("CC(C)C(=O)OCC(=O)[C@@]12O[C@H](C3CCCCC3)O[C@@H]1C[C@H]1[C@@H]3CCC4=CC(=O)C=C[C@]4(C)[C@H]3[C@@H](O)C[C@@]12C")
"inactive"
>>> class_label("CC(=O)OCC(=O)[C@@]12OC3(CCCC3)O[C@@H]1C[C@H]1[C@@H]3CCC4=CC(=O)C=C[C@]4(C)[C@@]3(F)[C@@H](O)C[C@@]12C")
"inactive"

In this assay, the call recorded for C=C(NC(=O)C(=C)NC(=O)c1csc(C2=N[C@@H]3c4csc(n4)[C@H]4NC(=O)c5csc(n5)[C@H]([C@](C)(O)[C@@H](C)O)NC(=O)[C@H]5CSC(=N5)C(=CC)NC(=O)C([C@@H](C)O)NC(=O)c5csc(n5)[C@]3(CC2)NC(=O)[C@H](C)NC(=O)C(=C)NC(=O)[C@H](C)NC(=O)C([C@@H](C)CC)NC2C=Cc3c([C@H](C)O)cc(nc3C2O)C(=O)O[C@@H]4C)n1)C(N)=O (stereo partly drawn) was what? inactive

From: PubChem BioAssay (NCATS)
